Measured Binding Signal (fold over 6E7 Parental antibody), listed per entry for reference.
- target_under_test: T1, human TREM2 (human, UniProt Q9NZC2 19-174, limits assumed)
- T1 construct: also called triggering receptor expressed on myeloid cells 2
- T1 sequence: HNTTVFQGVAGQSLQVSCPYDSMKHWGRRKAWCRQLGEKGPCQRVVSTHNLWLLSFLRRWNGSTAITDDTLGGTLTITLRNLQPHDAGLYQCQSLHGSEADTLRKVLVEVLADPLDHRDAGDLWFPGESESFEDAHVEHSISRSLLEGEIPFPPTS
- test_details: 1st screen (110 nM or 10 nM)
# output: bare number, implied unit fold

// query Any idea what Binding Signal (fold over 6E7 Parental antibody) was measured for V29 (antibody, V domains shown) VH: EVQLVQSGAEVKKPGESLKISCKGSGYSFKSYWIAWVRQMPGKGLEWMGIIYPGDSDTRYSPSFQGQVTISADKSISTAYLQWSSLKASDTAMYFCARQRTFYYDSSDYFDYWGQGTLVTVSS VL: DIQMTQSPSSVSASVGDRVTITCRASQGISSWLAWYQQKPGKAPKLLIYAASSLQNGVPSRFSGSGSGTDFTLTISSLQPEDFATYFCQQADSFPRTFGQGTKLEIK ?
// result 1.53

// query Param item: V18 (antibody, V domains shown) VH: EVQLVQSGAEVKKPGESLKISCKGSGYSFTSYHIAWVRQMPGKGLEWMGIIYPGDSDTRYSPSFQGQVTISADKSISTAYLQWSSLKASDTAMYFCARQRTFYYDSSDYFDYWGQGTLVTVSS VL: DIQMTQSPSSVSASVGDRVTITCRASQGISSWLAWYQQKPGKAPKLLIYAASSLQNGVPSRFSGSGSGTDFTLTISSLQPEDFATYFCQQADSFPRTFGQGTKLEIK
// result 0.17

// query Param item: V44 (antibody, V domains shown) VH: EVQLVQSGAEVKKPGESLKISCKGSGYSFTSYWIAWVRQMPGKGLEWMGIIYPSDSDTRYSPSFQGQVTISADKSISTAYLQWSSLKASDTAMYFCARQRTFYYDSSDYFDYWGQGTLVTVSS VL: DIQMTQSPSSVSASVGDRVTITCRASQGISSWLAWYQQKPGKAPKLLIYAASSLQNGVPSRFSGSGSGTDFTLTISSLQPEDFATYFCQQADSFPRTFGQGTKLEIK
// result 0.65
